Assay: Plasma/serum concentrations of caspofungin in a critically ill patient with morbid obesity
Assay type: in vivo
Details: male, human, plasma, 100 mg/day, after the first dose, one morbidly obese ICU patient (BMI 50 kg/m^2) in septic shock, read-out: Cpeak
Protocol: The aim of the study was to describe the pharmacokinetic behaviour of caspofungin in a critically ill patient with morbid obesity who received doses of caspofungin higher than labelled doses. A morbidly obese person (BMI = 50 kg/m^2) was admitted to our ICU after surgical treatment of anastomotic leak in the postoperative period of elective laparoscopic bariatric surgery. […] The caspofungin dose was calculated using a population pharmacokinetic model. […]

>  <molecule>
CC[C@H](C)C[C@H](C)CCCCCCCCC(=O)N[C@H]1C[C@@H](O)[C@@H](NCCN)NC(=O)[C@@H]2[C@@H](O)CCN2C(=O)[C@H]([C@H](O)CCN)NC(=O)[C@H]([C@H](O)[C@@H](O)c2ccc(O)cc2)NC(=O)[C@@H]2C[C@@H](O)CN2C(=O)[C@H]([C@@H](C)O)NC1=O [caspofungin]

>  <Cmax [ng/mL]>
4510

$$$$

Hey, just so you know, these numbers are from paper PMC5540490.
